# System: NCI-H2087
# test_method_notes: relative viability (nuclei count vs DMSO), 5 days (fraction); higher = more cells survive
# details: first compound 0.6325 µM
value_kind: relative viability

INSERT INTO results (molecule, measured_number) VALUES
  ('COCC1(CO)C(=O)C2CCN1CC2 (stereo not given) [PRIMA-1MET] + Cc1cc(Nc2cc(N3CCN(C)CC3)nc(Sc3ccc(NC(=O)C4CC4)cc3)n2)n[nH]1 [Tozasertib] (partner 0.1 µM)', 0.279),
  ('COCC1(CO)C(=O)C2CCN1CC2 (stereo not given) [PRIMA-1MET] + O=C(CCCCCCC(=O)Nc1ccccc1)NO [Vorinostat] (partner 1 µM)', 0.479),
  ('COCC1(CO)C(=O)C2CCN1CC2 (stereo not given) [PRIMA-1MET] + CC1(C)CCC(c2ccc(Cl)cc2)=C(CN2CCN(c3ccc(C(=O)NS(=O)(=O)c4ccc(N[C@H](CCN5CCOCC5)CSc5ccccc5)c(S(=O)(=O)C(F)(F)F)c4)cc3)CC2)C1 [Navitoclax] (partner 0.5 µM)', 0.901),
  ('COCC1(CO)C(=O)C2CCN1CC2 (stereo not given) [PRIMA-1MET] + CCNC(=O)c1noc(-c2cc(C(C)C)c(O)cc2O)c1-c1ccc(CN2CCOCC2)cc1 [Luminespib] (partner 0.01 µM)', 0.17),
  ('COCC1(CO)C(=O)C2CCN1CC2 (stereo not given) [PRIMA-1MET] + NC(=O)Nc1cc(-c2cccc(F)c2)sc1C(=O)N[C@H]1CCCNC1 [AZD7762] (partner 0.2 µM)', 1.35);

----------
# System: RERF-LC-KJ
# test_method_notes: relative viability (nuclei count vs DMSO), 5 days (fraction); higher = more cells survive
# details: first compound 0.03162 µM
Simple rule here: relative viability less than 0.7 is 1, otherwise -1.

INSERT INTO results (molecule, class) VALUES
  ('CCN(CC)CCCCNc1ncc2cc(-c3cc(OC)cc(OC)c3)c(NC(=O)NC(C)(C)C)nc2n1 + CC(=O)c1c(C)c2cnc(Nc3ccc(N4CCNCC4)cn3)nc2n(C2CCCC2)c1=O [Palbociclib] (partner 0.5 µM)', -1),
  ('O=c1cc(N2CCOCC2)oc2c(-c3cccc4c3sc3ccccc34)cccc12 + CS(=O)(=O)N1CCN(Cc2cc3nc(-c4cccc5[nH]ncc45)nc(N4CCOCC4)c3s2)CC1 [Pictilisib] (partner 1 µM)', 1),
  ('O=c1cc(N2CCOCC2)oc2c(-c3cccc4c3sc3ccccc34)cccc12 + COc1cc2c(Oc3ccc(NC(=O)C4(C(=O)Nc5ccc(F)cc5)CC4)cc3F)ccnc2cc1OCCCN1CCOCC1 [Foretinib] (partner 0.25 µM)', -1),
  ('CCN(CC)CCCCNc1ncc2cc(-c3cc(OC)cc(OC)c3)c(NC(=O)NC(C)(C)C)nc2n1 + O=C(c1cc(Cc2n[nH]c(=O)c3ccccc23)ccc1F)N1CCN(C(=O)C2CC2)CC1 [Olaparib] (partner 8 µM)', -1);

----------
# Test system: NCI-H1666
# test_method_notes: relative viability (nuclei count vs DMSO), 5 days (fraction); higher = more cells survive
# details: first compound 2.53 µM
Simple rule here: relative viability less than 0.8 is 1.0, otherwise 0.0.

INSERT INTO measurements (molecule, class) VALUES
  ('O=c1cc(-c2cccc3c2Sc2ccccc2S3)oc(N2CCOCC2)c1 + NC(=O)Nc1cc(-c2cccc(F)c2)sc1C(=O)N[C@H]1CCCNC1 [AZD7762] (partner 0.2 µM)', 1.0),
  ('O=c1cc(-c2cccc3c2Sc2ccccc2S3)oc(N2CCOCC2)c1 + C[C@]1(O)C[C@@H](c2nc(-c3ccc4ccc(-c5ccccc5)nc4c3)c3c(N)nccn32)C1 [Linsitinib] (partner 1 µM)', 1.0),
  ('O=c1cc(-c2cccc3c2Sc2ccccc2S3)oc(N2CCOCC2)c1 + COc1cc2c(Oc3ccc(NC(=O)C4(C(=O)Nc5ccc(F)cc5)CC4)cc3F)ccnc2cc1OCCCN1CCOCC1 [Foretinib] (partner 0.25 µM)', 0.0),
  ('COc1nc(C)cnc1NS(=O)(=O)c1cccnc1-c1ccc(-c2nnco2)cc1 [Zibotentan] + CC(=O)Nc1cccc(-n2c(=O)n(C3CC3)c(=O)c3c(Nc4ccc(I)cc4F)n(C)c(=O)c(C)c32)c1 [Trametinib] (partner 0.02 µM)', 0.0),
  ('COc1nc(C)cnc1NS(=O)(=O)c1cccnc1-c1ccc(-c2nnco2)cc1 [Zibotentan] + CC(C)C[C@H](NC(=O)[C@H](Cc1ccccc1)NC(=O)c1cnccn1)B(O)O [Bortezomib] (partner 0.002 µM)', 0.0),
  ('O=c1cc(-c2cccc3c2Sc2ccccc2S3)oc(N2CCOCC2)c1 + Cc1cc(Nc2cc(N3CCN(C)CC3)nc(Sc3ccc(NC(=O)C4CC4)cc3)n2)n[nH]1 [Tozasertib] (partner 0.1 µM)', 1.0),
  ('O=c1cc(-c2cccc3c2Sc2ccccc2S3)oc(N2CCOCC2)c1 + CS(=O)(=O)N1CCN(Cc2cc3nc(-c4cccc5[nH]ncc45)nc(N4CCOCC4)c3s2)CC1 [Pictilisib] (partner 1 µM)', 1.0),
  ('O=c1cc(-c2cccc3c2Sc2ccccc2S3)oc(N2CCOCC2)c1 + CS(=O)(=O)CCNCc1ccc(-c2ccc3ncnc(Nc4ccc(OCc5cccc(F)c5)c(Cl)c4)c3c2)o1 [Lapatinib] (partner 2 µM)', 1.0),
  ('COc1nc(C)cnc1NS(=O)(=O)c1cccnc1-c1ccc(-c2nnco2)cc1 [Zibotentan] + COc1cccc2cc(-c3nc([C@H]4CC[C@H](C(=O)O)CC4)n4ncnc(N)c34)[nH]c12 [OSI-027] (partner 0.5 µM)', 0.0);

----------
# Tested on: SK-LU-1
# test_method_notes: relative viability (nuclei count vs DMSO), 5 days (fraction); higher = more cells survive
# details: first compound 20 µM
value_kind: relative viability

INSERT INTO results (molecule, measured_number) VALUES
  ('COCC1(CO)C(=O)C2CCN1CC2 (stereo not given) [PRIMA-1MET] + CC(=O)Nc1cccc(-n2c(=O)n(C3CC3)c(=O)c3c(Nc4ccc(I)cc4F)n(C)c(=O)c(C)c32)c1 [Trametinib] (partner 0.02 µM)', 0.528),
  ('COCC1(CO)C(=O)C2CCN1CC2 (stereo not given) [PRIMA-1MET] + Cc1nc(NC(=O)N2CCC[C@H]2C(N)=O)sc1-c1ccnc(C(C)(C)C(F)(F)F)c1 [Alpelisib] (partner 2 µM)', 0.109),
  ('COCC1(CO)C(=O)C2CCN1CC2 (stereo not given) [PRIMA-1MET] + C[C@]1(O)C[C@@H](c2nc(-c3ccc4ccc(-c5ccccc5)nc4c3)c3c(N)nccn32)C1 [Linsitinib] (partner 1 µM)', 0.458),
  ('COCC1(CO)C(=O)C2CCN1CC2 (stereo not given) [PRIMA-1MET] + CS(=O)(=O)CCNCc1ccc(-c2ccc3ncnc(Nc4ccc(OCc5cccc(F)c5)c(Cl)c4)c3c2)o1 [Lapatinib] (partner 2 µM)', 0.235),
  ('COCC1(CO)C(=O)C2CCN1CC2 (stereo not given) [PRIMA-1MET] + CC(C)C[C@H](NC(=O)[C@H](Cc1ccccc1)NC(=O)c1cnccn1)B(O)O [Bortezomib] (partner 0.002 µM)', 0.617);

----------
// reported relative viability for each item listed
# Tested on: HOP-62
# test_method_notes: relative viability (nuclei count vs DMSO), 5 days (fraction); higher = more cells survive
# details: first compound 0.1 µM
value_kind: relative viability

INSERT INTO assay_data (compound, measured_number) VALUES
  ('CCN(CC)CCCCNc1ncc2cc(-c3cc(OC)cc(OC)c3)c(NC(=O)NC(C)(C)C)nc2n1 + Cc1nc(NC(=O)N2CCC[C@H]2C(N)=O)sc1-c1ccnc(C(C)(C)C(F)(F)F)c1 [Alpelisib] (partner 2 µM)', 0.89),
  ('CCN(CC)CCCCNc1ncc2cc(-c3cc(OC)cc(OC)c3)c(NC(=O)NC(C)(C)C)nc2n1 + O=C(CCCCCCC(=O)Nc1ccccc1)NO [Vorinostat] (partner 1 µM)', 0.616),
  ('O=c1cc(N2CCOCC2)oc2c(-c3cccc4c3sc3ccccc34)cccc12 + N=C(N)NC(=N)NCCc1ccccc1 [Phenformin] (partner 250 µM)', 0.671),
  ('CCN(CC)CCCCNc1ncc2cc(-c3cc(OC)cc(OC)c3)c(NC(=O)NC(C)(C)C)nc2n1 + CC1(C)CCC(c2ccc(Cl)cc2)=C(CN2CCN(c3ccc(C(=O)NS(=O)(=O)c4ccc(N[C@H](CCN5CCOCC5)CSc5ccccc5)c(S(=O)(=O)C(F)(F)F)c4)cc3)CC2)C1 [Navitoclax] (partner 0.5 µM)', 1.29),
  ('CCN(CC)CCCCNc1ncc2cc(-c3cc(OC)cc(OC)c3)c(NC(=O)NC(C)(C)C)nc2n1 + CC(=O)Nc1cccc(-n2c(=O)n(C3CC3)c(=O)c3c(Nc4ccc(I)cc4F)n(C)c(=O)c(C)c32)c1 [Trametinib] (partner 0.02 µM)', 0.398),
  ('CCN(CC)CCCCNc1ncc2cc(-c3cc(OC)cc(OC)c3)c(NC(=O)NC(C)(C)C)nc2n1 + Nc1nc2[nH]cc(CCc3ccc(C(=O)N[C@@H](CCC(=O)O)C(=O)O)cc3)c2c(=O)[nH]1 [Pemetrexed] (partner 0.2 µM)', 0.362),
  ('O=c1cc(N2CCOCC2)oc2c(-c3cccc4c3sc3ccccc34)cccc12 + Nc1nc2[nH]cc(CCc3ccc(C(=O)N[C@@H](CCC(=O)O)C(=O)O)cc3)c2c(=O)[nH]1 [Pemetrexed] (partner 0.2 µM)', 0.276),
  ('CCN(CC)CCCCNc1ncc2cc(-c3cc(OC)cc(OC)c3)c(NC(=O)NC(C)(C)C)nc2n1 + Nc1ncn([C@H]2C[C@H](O)[C@@H](CO)O2)c(=O)n1 [Decitabine] (partner 2 µM)', 0.208),
  ('O=c1cc(N2CCOCC2)oc2c(-c3cccc4c3sc3ccccc34)cccc12 + CC(C)C[C@H](NC(=O)[C@H](Cc1ccccc1)NC(=O)c1cnccn1)B(O)O [Bortezomib] (partner 0.002 µM)', 0.963);

These measurements were taken from the supplement of paper PMC10307832.
